Where these numbers come from: ChEMBL document CHEMBL2157986

- target-under-test: 5-hydroxytryptamine receptor 1A (Homo sapiens, UniProt P08908)
- Sequence (P08908 whole entry): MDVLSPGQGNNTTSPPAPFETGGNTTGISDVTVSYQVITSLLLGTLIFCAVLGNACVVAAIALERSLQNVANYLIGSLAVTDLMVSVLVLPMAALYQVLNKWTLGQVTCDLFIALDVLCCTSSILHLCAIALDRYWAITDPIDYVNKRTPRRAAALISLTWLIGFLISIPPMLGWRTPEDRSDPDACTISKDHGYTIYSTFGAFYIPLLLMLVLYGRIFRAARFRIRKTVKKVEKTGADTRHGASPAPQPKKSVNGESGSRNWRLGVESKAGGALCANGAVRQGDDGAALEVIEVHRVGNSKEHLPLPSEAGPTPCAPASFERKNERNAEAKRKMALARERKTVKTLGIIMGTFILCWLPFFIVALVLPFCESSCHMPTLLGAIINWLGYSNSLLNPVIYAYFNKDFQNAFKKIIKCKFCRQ
Form field: Ki (one value per entry).
// return numeric value only (unit: nM, not printed)

> print(dat)
                                   compound  test.value
1  CC(C)c1ccccc1OCCN1CCC(NS(=O)(=O)c2cccs2)C1 (stereo not given)          21
2  CC(C)c1ccccc1OCCN1CC[C@H](NS(=O)(=O)c2ccc(Cl)s2)C1          89
3  CC(C)c1ccccc1OCCN1CCC(NS(=O)(=O)c2ccc(F)cc2)CC1         436
4  O=S(=O)(c1ccc2cc[nH]c2c1)N1CCC[C@@H]1CCN1CCC(Oc2ccc(Cl)cc2)CC1         250
5  O=S(=O)(NC1CCN(CCOc2ccccc2-c2ccccc2)C1)c1ccc(F)c(F)c1 (stereo not given)          92
6  O=S(=O)(NC1CCN(CCOc2cccc(Cl)c2Cl)C1)c1ccc(Cl)s1 (stereo not given)          28
7  O=S(=O)(N[C@@H]1CCN(CCOc2ccccc2-c2ccccc2)C1)c1ccc(F)cc1          22
8  O=S(=O)(NC1CCN(CCOc2ccccc2)C1)c1ccc(F)cc1 (stereo not given)           9
9  O=S(=O)(NC1CCN(CCOc2ccccc2-c2ccccc2)CC1)c1ccc(F)c(F)c1         313

Next, consider the following compound.
Exercise: Find the recorded Ki belonging to O=S(=O)(N[C@@H]1CCN(CCOc2ccccc2-c2ccccc2)C1)c1ccc(Cl)s1 and report it.
Key: 75

====

- target-under-test: 5-hydroxytryptamine receptor 6 (Homo sapiens, UniProt P50406)
- Sequence (P50406 whole entry): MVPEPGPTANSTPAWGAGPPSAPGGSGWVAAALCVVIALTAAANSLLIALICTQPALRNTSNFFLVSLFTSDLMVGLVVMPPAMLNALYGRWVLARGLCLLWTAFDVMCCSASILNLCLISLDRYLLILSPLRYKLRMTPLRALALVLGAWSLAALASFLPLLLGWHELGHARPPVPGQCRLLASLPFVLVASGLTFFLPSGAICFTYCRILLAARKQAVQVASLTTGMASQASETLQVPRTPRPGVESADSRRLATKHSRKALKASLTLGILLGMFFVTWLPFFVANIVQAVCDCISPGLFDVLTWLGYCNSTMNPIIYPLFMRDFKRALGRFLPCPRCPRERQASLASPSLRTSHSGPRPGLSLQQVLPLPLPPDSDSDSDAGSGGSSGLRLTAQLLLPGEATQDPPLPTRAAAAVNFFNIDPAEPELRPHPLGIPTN
- procedure-details: Displacement of [3H]-LSD from human 5-HT6 receptor expressed in HEK293 cells after 1 hr
- Format: cell-based
readout: Ki (nM)
// return numeric value only (unit: nM, not printed)

> print(dat)
                                   compound  readout  unit.string  test.value
1  O=S(=O)(NCC1CCN(CCOc2cccc(F)c2)CC1)c1ccc(F)cc1       Ki           nM        2120

Exercise: Find the recorded Ki belonging to O=C(NC1CCN(CCOc2ccccc2-c2ccccc2)C1)c1ccc2ccccc2n1 (stereo not given) and report it.
Key: 1340

Exercise: Find the recorded Ki belonging to O=S(=O)(N[C@@H]1CCN(CCOc2ccccc2-c2ccccc2)C1)c1ccc(Cl)s1 and report it.
Key: 202

Exercise: Find the recorded Ki belonging to O=S(=O)(NCC1CCN(CCOc2cccc(F)c2)CC1)c1cccs1 and report it.
Key: 2760

Exercise: Find the recorded Ki belonging to O=S(=O)(NC1CCN(CCOc2cccc(F)c2)C1)c1cccs1 (stereo not given) and report it.
Key: 1780

Exercise: Find the recorded Ki belonging to CC(C)c1ccccc1OCCN1CC[C@@H](NS(=O)(=O)c2ccc(Cl)s2)C1 and report it.
Key: 200

Exercise: Find the recorded Ki belonging to CSc1ccccc1OCCN1CCC(NS(=O)(=O)c2cccc(Cl)c2)C1 (stereo not given) and report it.
Key: 185

Exercise: Find the recorded Ki belonging to CC(C)c1ccccc1OCCN1CCC(NS(=O)(=O)c2cccs2)C1 (stereo not given) and report it.
Key: 258

Exercise: Find the recorded Ki belonging to CC(C)c1ccccc1OCCN1CC[C@H](NS(=O)(=O)c2ccc(Cl)s2)C1 and report it.
Key: 537

Exercise: Find the recorded Ki belonging to O=S(=O)(N[C@H]1CCN(CCOc2ccccc2-c2ccccc2)C1)c1ccc(Cl)s1 and report it.
Key: 551
